Where these numbers come from: the supplement of paper PMC12636033

Test system: 2Sp-muMax20 (muMax20 with two 2,6-bis(methyl)pyridine Cys staples)
Assay: PBM 8-mer E-score (E-score (rank enrichment, -0.5 to 0.5)); higher = stronger preferential binding
In all, about 33,000 sequences were measured (“E-score (rank enrichment, -0.5 to 0.5)”: median about -0.0043, highest 2% from about 0.24 on). What follows is part of a selection rich in the highest values, with near analogues and random picks from the rest.
Threshold rule: PBM 8-mer E-score greater than or equal to 0.02 is True; below that, False.

Consider the worked cases shown below.
CONSTRUCT_SEQUENCE: ACATAGCA
CLASS: True
//
CONSTRUCT_SEQUENCE: CTTACCAC
CLASS: False
//
CONSTRUCT_SEQUENCE: TTCGAAAA
CLASS: True
//
CONSTRUCT_SEQUENCE: ATTAATGA
CLASS: True
//
CONSTRUCT_SEQUENCE: ATTAATTG
CLASS: True
//
CONSTRUCT_SEQUENCE: AATCACGC
CLASS: True
//
CONSTRUCT_SEQUENCE: AACAATTA
CLASS: True
//
CONSTRUCT_SEQUENCE: ATCAATCG
CLASS: True

Check this sequence for PBM 8-mer E-score at or above 0.02: CCAACTCA
False

Reported PBM 8-mer E-score at or above 0.02? ATTAATTA
True

State whether the measured PBM 8-mer E-score reaches 0.02, counting equality as reaching it, for ATCGTAAG
False

Could you please find out whether ACATGCAA has PBM 8-mer E-score that meets 0.02 or exceeds it?
True

Evaluate AAACAGAA : PBM 8-mer E-score at minimum 0.02?
True

Kindly determine if PBM 8-mer E-score recorded for CCGCTGGA is above or exactly 0.02.
False

Has GCACTCAA a recorded PBM 8-mer E-score greater than or equal to 0.02?
False

====

Collected PBM 8-mer E-score values appear next to each entry.
Tested on: 2Sp-muMax20 (muMax20 with two 2,6-bis(methyl)pyridine Cys staples)
Experiment: PBM 8-mer E-score (E-score (rank enrichment, -0.5 to 0.5)); higher = stronger preferential binding
The full ranking holds about 33,000 sequences; the median of “E-score (rank enrichment, -0.5 to 0.5)” is about -0.0043, and the highest 2% start at about 0.24. Many of the other results were omitted from the sample, so the highest values are more common in it than they were.
Please state the value as a number alone, without comment.

// AATCACAC : PBM 8-mer E-score value = 0.236

For ACATATCG the sequence record lists PBM 8-mer E-score as 0.115

For this sequence ( AAGACAGG ), measured PBM 8-mer E-score is -0.106

Reported PBM 8-mer E-score for CCCAGGTA was -0.0104

Note to self: PBM 8-mer E-score recorded for GACCCATA was 0.188

The sequence listed as ATGTTTAG shows PBM 8-mer E-score equal to 0.22

Per the records, this sequence ( ATGGCTGG ) has PBM 8-mer E-score equal to -0.00368

// field: PBM 8-mer E-score; key: GGTAATTA ; value = 0.147

Entry ACGTCCAT ; PBM 8-mer E-score = -0.0323

====

Test system: 2Sp-muMax20 (muMax20 with two 2,6-bis(methyl)pyridine Cys staples)
Experiment: PBM 8-mer E-score (E-score (rank enrichment, -0.5 to 0.5)); higher = stronger preferential binding
Whole data set: some 33,000 sequences, median “E-score (rank enrichment, -0.5 to 0.5)” near -0.0043, cut for the highest 2% near 0.24. This excerpt belongs to a sample that is enriched for the highest values.
Label scheme for PBM 8-mer E-score: lower than 0.06 is NO, 0.06 and above is YES.

CONSTRUCT_SEQUENCE: CTGTTTAC
CLASS: NO

CONSTRUCT_SEQUENCE: AATTCCGA
CLASS: NO

CONSTRUCT_SEQUENCE: CCCACCGC
CLASS: NO

CONSTRUCT_SEQUENCE: GATTACGA
CLASS: NO

CONSTRUCT_SEQUENCE: CTCTTGGA
CLASS: NO

CONSTRUCT_SEQUENCE: AATTAAGA
CLASS: YES

CONSTRUCT_SEQUENCE: CTATATCA
CLASS: YES

CONSTRUCT_SEQUENCE: ATCAATTG
CLASS: YES

Is PBM 8-mer E-score at least 0.06? Consider ATGGGGCA
YES

Check this sequence for PBM 8-mer E-score at or above 0.06: CAAGGCTG
NO

Does the reported PBM 8-mer E-score for ATAAGGGA fall at or above the 0.06 mark?
YES

Answer whether PBM 8-mer E-score of AATGACAA is greater than or equal to 0.06.
YES

Identify whether the reported PBM 8-mer E-score of the following sequence is 0.06 or greater: GATCACAC
YES

Hi team, for CTTAATGC , is the recorded PBM 8-mer E-score at or above 0.06?
YES

====

Tested on: 2Sp-muMax20 (muMax20 with two 2,6-bis(methyl)pyridine Cys staples)
Assay: PBM 8-mer E-score (E-score (rank enrichment, -0.5 to 0.5)); higher = stronger preferential binding
Over roughly 33,000 sequences, “E-score (rank enrichment, -0.5 to 0.5)” has its median near -0.0043; the highest 2% begin near 0.24. The sample as a whole holds a higher share of the highest values than the screen did.
So basically: PBM 8-mer E-score at -0.02 or higher? That is T. Lower than -0.02? That is F.

Examples with answers:
CONSTRUCT_SEQUENCE: CTAAAAGC
CLASS: F
//
CONSTRUCT_SEQUENCE: AAAGTATA
CLASS: T
//
CONSTRUCT_SEQUENCE: GTGTTAAC
CLASS: T
//
CONSTRUCT_SEQUENCE: AAGATCTT
CLASS: T

Check the entry ATACAGCG : does PBM 8-mer E-score equal or exceed -0.02?
F

Please tell me: is the sequence ATCTGACA at or over -0.02 in terms of PBM 8-mer E-score?
F

Given the entry CTTTCGGA , answer whether its PBM 8-mer E-score meets or surpasses -0.02.
F

Has AAGATCTA a recorded PBM 8-mer E-score greater than or equal to -0.02?
F

Does PBM 8-mer E-score meet or surpass -0.02 for AAGATCTG ?
T

Decide: is the reported value of PBM 8-mer E-score for GTACTGAA equal to or greater than -0.02?
T

Quick check, PBM 8-mer E-score >= -0.02? CGCGCAGC
F

Can CTACAGTA be said to have PBM 8-mer E-score at or above -0.02?
T

====

Tested on: 2Sp-muMax20 (muMax20 with two 2,6-bis(methyl)pyridine Cys staples)
Assay: PBM 8-mer E-score (E-score (rank enrichment, -0.5 to 0.5)); higher = stronger preferential binding
The full ranking holds about 33,000 sequences; the median of “E-score (rank enrichment, -0.5 to 0.5)” is about -0.0043, and the highest 2% start at about 0.24. What follows is part of a selection rich in the highest values, with near analogues and random picks from the rest.
A collection of sequences and their measured PBM 8-mer E-score
Give only the figure.

CONSTRUCT_SEQUENCE: ACACTATA
SUBJECT_OF_TEST: 2Sp-muMax20 (muMax20 with two 2,6-bis(methyl)pyridine Cys staples)
PBM 8-mer E-score: 0.0551
//
CONSTRUCT_SEQUENCE: ATTGCGCA
SUBJECT_OF_TEST: 2Sp-muMax20 (muMax20 with two 2,6-bis(methyl)pyridine Cys staples)
PBM 8-mer E-score: 0.124
//
CONSTRUCT_SEQUENCE: AATCACGT
SUBJECT_OF_TEST: 2Sp-muMax20 (muMax20 with two 2,6-bis(methyl)pyridine Cys staples)
PBM 8-mer E-score: 0.254

Let us examine a further case.
Given item AGGATGGC , the value recorded as its PBM 8-mer E-score is -0.0191
